Each recorded value in this set is attributed to PubChem BioAssay AID330.

Catalogue of molecules with associated T/C
# Test system: P388 leukemia ip, CD2F1 mice, survival T/C
# run.description: NCI In Vivo Anticancer Drug Screen. Data for tumor model P388 Leukemia (intraperitoneal) in CD2F1 (CDF1) mice
# details: endpoint: median survival time; dose: 100.0 mg/kg/injection; schedule: Q01DX001 (ip); vehicle: saline with Tween-80; higher = longer survival
# Method: The antitumor activity of compounds was measured in mice bearing transplantable tumors. Survival or tumor size were measured and the results are expressed as the measurement made in the treated group (T) divided by the measurement made in the vehicle treated control group (C). The tumor model used in this assay is P388 Leukemia (intraperitoneal) in CD2F1 (CDF1) mice
Toxic doses and inconclusive results are not listed.

Field: example entries. Status: answers known.
> print(dat)
                                   molecule  measured.attribute            result
1  NC1=NC(c2ccccc2Cl)CC(c2cc3ccccc3o2)=N1 (stereo not drawn)                 T/C   92 % of control
2                   O=C(O)Cc1c[nH]c2ccccc12                 T/C  105 % of control
3  CSC1(C)C(=O)Nc2cccc([N+](=O)[O-])c21 (stereo not drawn)                 T/C  100 % of control
4            N#Cc1c(-c2ccccc2)sc2ccccc2c1=O                 T/C   99 % of control
5                              CC(C)C1SCCS1                 T/C  106 % of control

Query string: Fill in the recorded T/C for this molecule, with P388 leukemia ip, CD2F1 mice, survival T/C as test system: `C[Si](C)(C)CSCC#N`
Result string: 98 % of control

Query string: Can you handle `Clc1cc2[nH]ccc2c(Cl)n1` next?
Result string: 92 % of control

Query string: Can you handle `NC(=O)Cc1[nH]ccc1C(=O)O` next?
Result string: 103 % of control

Query string: Can you handle `Cc1ccccc1OC(=O)Nc1ccc(C(=O)O)c(O)c1` next?
Result string: 95 % of control

Query string: Can you handle `COc1c2c(c(N3CCCC3)c3c1C(=O)c1ccccc1C3=O)C(=O)CCC2` next?
Result string: 100 % of control

Query string: Can you handle NC(=O)N/N=C1\CC2C=CC1/C=C\C=C\2 (stereo not drawn) next?
Result string: 100 % of control

Query string: Can you handle `O=[N+]([O-])c1ccc(-c2cnc3nc4[nH]c5ccccc5c4nn23)cc1` next?
Result string: 101 % of control

Query string: Can you handle `C=C1C(C#N)=C(SC)SC(=S)N1CC` next?
Result string: 92 % of control
